- method: Cell Viability - HepG2 (AID 433);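 further: cells exposed to compound for 40 hours; potency for ATP loss meaning cytotoxicity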
- setupConditions: qHTS
- From the text: NIH Chemical Genomics Center [NCGC] NIH Molecular Libraries Screening Centers Network [MLSCN] National Institutes of Environmental Health Sciences [NIEHS] National Toxicology Program [NTP] We have developed a 1536-well cell-based assay for quantitative high throughput screening (qHTS) against a number of cell lines to determine in vitro cytotoxicity of small molecules. […] 8. Detection; Luminescence; Viewlux plate reader […]
Inconclusive results are not listed. The source made the active and inactive calls. The call rests on the fitted dose curve.
Give your call using only these classes: True for active, False for inactive

Answer briefly: the call reported for CC[C@H]1OC(=O)[C@H](C)[C@@H](O[C@H]2C[C@@](C)(OC)[C@@H](O)[C@H](C)O2)[C@H](C)[C@@H](O[C@@H]2O[C@H](C)C[C@H](N(C)C)[C@H]2O)[C@](C)(O)C[C@@H](C)CN(C)[C@H](C)[C@@H](O)[C@]1(C)O in this assay.
False

Moving on to CCCCO
False

Can you check C[C@H]1O[C@@H](O[C@H]2[C@@H](O)C[C@H](O[C@H]3[C@@H](O)C[C@H](O[C@H]4CC[C@@]5(C)[C@H](CC[C@@H]6[C@@H]5C[C@@H](O)[C@]5(C)[C@@H](C7=CC(=O)OC7)CC[C@]65O)C4)O[C@@H]3C)O[C@@H]2C)C[C@H](O)[C@@H]1O next?
True

Next entry: NC(N)=O
False
